Entries and their pKi
Target: UniProtKB P20444
Assay: PKC binding affinity
Settings: mouse PKCα; read-out: K1[nm] ± SEM
Experimental: ClogP and topological polar surface area (tPSA) values were calculated (Table 1). ClogP values for the tested compounds ranged from 0.92 to 4.67. The tPSA values were in the range of 61.80-90.90. […] The binding affinities of the compounds for mouse PKCα were determined as described previously. The Ki values for each of the compounds 2, 3, 6, 7, and 9-14, and known […] bryostatin 1 and SAHA are listed in Table 1.
pKi: −log10 of the molar value.
READOUT_LABEL: pKi

> print(dat)
                                   compound  measured.number
1  CC(C)[C@H]1C(=O)N[C@H](CO)Cc2ccc(OCCNC(=O)CCCCC3CCSS3)cc2N1C (stereo partly drawn)             6.83
2  CC(=O)SCCCCCCOc1ccc2c(c1)N(C)C(C(C)C)C(=O)NC(CO)C2 (stereo not drawn)             8.06
3  CC(C)[C@H]1C(=O)N[C@H](CO)Cc2ccc(OC(=O)CCCCC3CCSS3)cc2N1C (stereo partly drawn)             8.24
